- TESTED_ON: Serine/threonine-protein kinase PLK4 (Homo sapiens) (UniProt O00444)
- Sequence (O00444 whole entry): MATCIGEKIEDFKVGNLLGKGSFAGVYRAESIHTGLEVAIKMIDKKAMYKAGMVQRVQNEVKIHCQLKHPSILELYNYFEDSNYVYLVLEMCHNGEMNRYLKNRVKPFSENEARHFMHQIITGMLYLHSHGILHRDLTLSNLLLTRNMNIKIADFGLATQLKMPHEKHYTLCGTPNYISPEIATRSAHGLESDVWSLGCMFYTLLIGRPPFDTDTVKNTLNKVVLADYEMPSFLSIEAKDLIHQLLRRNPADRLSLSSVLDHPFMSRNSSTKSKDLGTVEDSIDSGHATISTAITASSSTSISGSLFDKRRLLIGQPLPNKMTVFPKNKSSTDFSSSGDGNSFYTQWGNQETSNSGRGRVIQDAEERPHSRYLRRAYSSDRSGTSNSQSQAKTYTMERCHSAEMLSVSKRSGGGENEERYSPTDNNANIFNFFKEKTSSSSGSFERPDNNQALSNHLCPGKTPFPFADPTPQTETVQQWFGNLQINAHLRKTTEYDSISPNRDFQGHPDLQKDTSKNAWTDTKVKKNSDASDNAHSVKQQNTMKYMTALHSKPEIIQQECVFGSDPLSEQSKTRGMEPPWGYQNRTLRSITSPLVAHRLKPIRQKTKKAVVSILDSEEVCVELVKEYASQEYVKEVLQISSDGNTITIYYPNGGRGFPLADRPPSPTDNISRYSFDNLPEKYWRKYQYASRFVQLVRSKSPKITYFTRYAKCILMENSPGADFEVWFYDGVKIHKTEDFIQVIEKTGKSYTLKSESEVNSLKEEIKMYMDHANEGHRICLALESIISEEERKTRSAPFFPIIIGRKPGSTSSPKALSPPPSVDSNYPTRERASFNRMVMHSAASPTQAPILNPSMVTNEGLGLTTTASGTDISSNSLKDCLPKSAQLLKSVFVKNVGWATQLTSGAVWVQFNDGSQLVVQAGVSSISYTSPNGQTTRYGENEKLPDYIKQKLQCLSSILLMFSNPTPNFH
Please go through the items and note down their ΔTm.
One number for each entry, in °C.

In [3]: df
Out[3]:
                         chemical_structure                                 tested_on  measure_name  value_measured
0  CC(C)(C)c1nc2c3ccc(F)cc3c3c(=O)[nH]ccc3c2[nH]1  Serine/threonine-protein kinase PLK4 (Homo sapiens) (UniProt O00444)           ΔTm            11.8
1  CC(=O)O/N=C1/C(=C2/C(=O)Nc3cc(Br)ccc32)Nc2ccccc21  Serine/threonine-protein kinase PLK4 (Homo sapiens) (UniProt O00444)           ΔTm             6.7
2          O=c1cc(N2CCOCC2)oc2c1ccc1ccccc12  Serine/threonine-protein kinase PLK4 (Homo sapiens) (UniProt O00444)           ΔTm             0.2
3  CN(C)S(=O)(=O)c1ccc2c(c1)/C(=C/c1cc3c([nH]1)CCCC3)C(=O)N2  Serine/threonine-protein kinase PLK4 (Homo sapiens) (UniProt O00444)           ΔTm            12.8

Report ΔTm for each item below.
1. COc1cc2ncnc(Nc3ccc(F)c(Cl)c3)c2cc1OCCCN1CCOCC1
2. CCOc1cc2ncnc(Nc3cccc(Br)c3)c2cc1OCC

Solution:
[0, 3.8]

----------
As an illustration, consider measured ΔTm for molecules on Calcium/calmodulin-dependent protein kinase type II subunit alpha (Homo sapiens).
Give bare numbers, in °C.

# annotated cases, reported ΔTm shown
>>> df
                                   molecule                                 tested_on  unit_symbol  value_measured
0   COc1ccc(COc2ccc(Cc3cnc(N)nc3N)cc2OC)cc1  Calcium/calmodulin-dependent protein kinase type II subunit alpha (Homo sapiens)           °C            -0.1
1  Cc1nc(N)sc1-c1ccnc(Nc2cccc([N+](=O)[O-])c2)n1  Calcium/calmodulin-dependent protein kinase type II subunit alpha (Homo sapiens)           °C             1.4
2  Nc1ncnc2c1c(I)cn2[C@@H]1O[C@H](CO)[C@@H](O)[C@H]1O  Calcium/calmodulin-dependent protein kinase type II subunit alpha (Homo sapiens)           °C             0.7
3  NS(=O)(=O)c1ccc(Nc2nc(OCC3CCCCC3)c3nc[nH]c3n2)cc1  Calcium/calmodulin-dependent protein kinase type II subunit alpha (Homo sapiens)           °C             0.6
4  Cc1ccc(NC(=O)c2ccc(CN3CCN(C)CC3)cc2)cc1Nc1nccc(-c2cccnc2)n1  Calcium/calmodulin-dependent protein kinase type II subunit alpha (Homo sapiens)           °C             0.2

Hi team, please reply with ΔTm for each item in this list.
1. COc1cccc(-c2cc(=O)c3ccccc3o2)c1N
2. Cc1ccc(NC(=O)c2cccc(N(C)C)c2)cc1NC(=O)c1ccc(O)cc1
3. CC(C)n1cnc2c(NCc3ccccc3O)nc(NCCCO)nc21
4. O=C1Nc2ccccc2/C1=C1/Nc2ccccc2/C1=N\O
5. O=[N+]([O-])c1ccc(-c2nc(-c3ccc(F)cc3)c(-c3ccncc3)[nH]2)cc1
6. N#C/C(=C\c1ccc(O)c(O)c1)C(=O)NCc1ccccc1
7. CN1CCC(Nc2ncc3ncnc(Nc4ccc(F)c(Cl)c4)c3n2)CC1

Solution:
[-0.5, 0.1, 0, 6.1, 2.2, 0.4, -0.2]

----------
Entries with their measured ΔTm, system Calcium/calmodulin-dependent protein kinase kinase 2 (Homo sapiens, UniProt Q96RR4):
Numbers only, in °C.

                                   compound  value_measured
0  O=C1Cc2c([nH]c3ccc(Br)cc23)-c2ccccc2N1 [KENPAULLONE]               2
1     CC(C)n1cnc2c(NCc3ccccc3)nc(NCCCO)nc21               2

# next compound below
Problem: Identify ΔTm associated with the compound "Nc1ncnc2c1c(I)cn2[C@@H]1O[C@H](CO)[C@@H](O)[C@H]1O"
Solution: 2

----------
// each record: one item and its ΔTm for Serine/threonine-protein kinase VRK3 (Homo sapiens) (UniProt Q8IV63)
Report field: quantity (unit follows the number).

>>> df
                                   compound  measure_name  value_measured
0   CCOC(=O)c1cnc2oc3ccc(O)cc3c2c1-c1ccccc1           ΔTm         -0.6 °C
1      O=c1c(-c2ccc(O)cc2)coc2cc(O)cc(O)c12           ΔTm          1.2 °C
2          Cn1cnc2c(NCc3ccccc3)nc(NCCO)nc21           ΔTm          0.1 °C
3  COC(=O)[C@]1(O)C[C@@H]2O[C@@]1(C)n1c3ccccc3c3c4c(c5c6ccccc6n2c5c31)C(=O)NC4 (single isomer, unassigned)           ΔTm         -0.2 °C

Kindly give each listed record's ΔTm.
1. OC[C@H]1O[C@@H](n2cnc3cc(Cl)c(Cl)cc32)[C@H](O)[C@@H]1O
2. CC(C)(C)n1nc(-c2ccc(Cl)cc2)c2c(N)ncnc21
3. Cc1cncc2cccc(S(=O)(=O)N3CCCNC[C@@H]3C)c12
4. Brc1c(Br)c(Br)c2[nH]nnc2c1Br

Solution:
-0.2 °C
-0.2 °C
0.4 °C
-1.2 °C

Quick request: ΔTm for each listed item, please.
1. CCN(CC)CCNC(=O)c1c(C)[nH]c(/C=C2\C(=O)Nc3ccc(Cl)cc32)c1C
2. O=C1c2ccccc2-c2n[nH]c3cccc1c23
3. O=C1NC(=O)c2c1c1c3ccccc3[nH]c1n1cncc21 [ISOGRANULATIMIDE]

Solution:
0.3 °C
0.1 °C
3.7 °C

----------
In what follows, each item is paired with its ΔTm for Serine/threonine-protein kinase PLK1 (Homo sapiens) (UniProt P53350).
Give bare numbers, in °C.

                                   compound  unit_symbol  value_measured
0  COC1=C2C[C@@H](C)C[C@H](OC)[C@H](O)[C@@H](C)/C=C(\C)[C@H](OC(N)=O)[C@@H](OC)/C=C\C=C(/C)C(=O)NC(=CC1=O)C2=O           °C             0.1

Below is a list of compounds. For each, state its recorded ΔTm.
1. O=c1c(-c2ccc(F)cc2)c(-c2ccncc2)[nH]n1-c1ccc(Cl)cc1
2. CN(C)S(=O)(=O)c1ccc2c(c1)/C(=C/c1cc3c([nH]1)CCCC3)C(=O)N2
3. Cn1cc(C2=C(c3cn(CCCSC(=N)N)c4ccccc34)C(=O)NC2=O)c2ccccc21
4. Brc1c(Br)c(Br)c2[nH]nnc2c1Br [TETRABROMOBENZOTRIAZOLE]
5. Nc1cccc(-c2cc3c(Oc4cccc(O)c4)ncnc3[nH]2)c1
6. CC(C)N(CCO)c1nc(Nc2cccc(Cl)c2)c2ncn(C(C)C)c2n1

Solution:
[0.3, 0.1, 0.3, 2.3, 4.4, 3.3]

// each listed compound needs a value for ΔTm
1. COc1cc2ncnc(Nc3ccc(F)c(Cl)c3)c2cc1OCCCN1CCOCC1
2. Cc1[nH]c(/C=C2\C(=O)Nc3ccc(S(=O)(=O)N(C)c4cccc(Cl)c4)cc32)c(C)c1C(=O)N1CCN(C)CC1
3. Cn1cc(/C=C2/C(=O)Nc3ccc(S(N)(=O)=O)cc32)c2ccccc21
4. Oc1cccc(-c2nc(N3CCOCC3)c3oc4ncccc4c3n2)c1
5. O=c1sn(Cc2ccccc2)c(=S)n1Cc1ccccc1
6. O=C1Nc2cc(Br)ccc2/C1=C1/Nc2ccccc2/C1=N\O
7. O=C1Nc2ccc(S(=O)(=O)O)cc2/C1=C1/Nc2ccccc2/C1=N\O
8. O=C(Nc1cccc(Nc2cc(Nc3cccc(C(F)(F)F)c3)ncn2)c1)C1CC1

Solution:
[1.2, 1.9, -0.7, 0.3, 1.3, 0.1, 1.1, 0]

Answer for every listed entry: what is its ΔTm? The entries follow.
1. CCN1/C(=C/C(C)=O)Sc2ccc(OC)cc21
2. O=C1Nc2ccccc2/C1=C\c1ccc[nH]1
3. Cc1cc(Nc2nc(-c3ccccc3)nc3ccccc23)n[nH]1
4. CN(C)c1ncnc2nc[nH]c12 [DIMETHYLADENINE]
5. O=C(O)/C=C/c1cc(CO)ccc1CO
6. C=CNC#N
7. O=[N+]([O-])c1ccc(-c2nc(-c3ccc(F)cc3)c(-c3ccncc3)[nH]2)cc1
8. CC(=O)O/N=C1/C(=C2/C(=O)Nc3cc(Br)ccc32)Nc2ccccc21 [6-BROMOINDIRUBIN-3'-ACETOXIME]

Solution:
[0.3, -0.6, 10.8, 0.5, 0.3, 0.1, -1.4, 0.4]

Provide the reported ΔTm of each entry below, same order.
1. Nc1ncnc2c1c(I)cn2[C@@H]1O[C@H](CO)[C@@H](O)[C@H]1O
2. NC1=N/C(=C2/CCNC(=O)c3[nH]ccc32)C(=O)N1 [DEBROMOHYMENIALDISINE]
3. Cc1nc(Nc2ncc(C(=O)Nc3c(C)cccc3Cl)s2)cc(N2CCN(CCO)CC2)n1
4. O=C1NC(=O)c2c1c1c3ccccc3[nH]c1n1cncc21 [ISOGRANULATIMIDE]
5. CN1CCC(Nc2ncc3ncnc(Nc4ccc(F)c(Cl)c4)c3n2)CC1 [FALNIDAMOL]

Solution:
1. 1
2. 2.4
3. 2.4
4. 9.3
5. 1.1

Reference source: ChEMBL document CHEMBL1145498
